Numbers sourced from patent US9107411B2.

PROTOCOL_DESCRIPTION: logP (HPLC-MS)
Format: physicochemical
TEST_CONTEXT: HPLC, reversed-phase column (C18), 43° C., acidic range pH 2.7, EEC directive 79/831 Annex V.A8; two values = both regioisomers (G = N)
log p for assorted compounds
PROPERTY_MEASURED: log p

compound="CCn1c(C(=O)NC(c2ccc(F)c(F)c2)C(F)(F)F)cc2cc(C(=O)NC3CC3)c(Cl)cc21 (stereo not shown) [Compound 329]" data_value=3.52
compound="CCn1c(C(=O)NC(c2ccc(F)c(F)c2)C(F)(F)F)cc2cc(C(=O)NC3(C#N)CC3)c(C)cc21 (stereo not shown) [Compound 292]" data_value=3.48
compound="CCn1c(C(=O)NC(c2ccc(F)c(C(F)(F)F)c2)C(F)(F)F)cc2cc(C(=O)NC(C)C)c(C)cc21 (stereo not shown) [Compound 305]" data_value=4.16
compound="O=C(NC1CC1)c1cc2nc(C(=O)NC(c3ccc(F)c(C(F)(F)F)c3)C(F)(F)F)n(C3CC3)c2cc1Cl (stereo not shown) [Compound 313]" data_value=3.38

* * *

PROTOCOL_DESCRIPTION: logP (HPLC-MS)
Format: physicochemical
TEST_CONTEXT: HPLC-MS
chromatographic logP for assorted molecules
PROPERTY_MEASURED: chromatographic logP

molecule="CCn1c(C(=O)NC(c2ccc(F)c(C(F)(F)F)c2)C(F)(F)F)cc2cc(C(=O)NCC(F)F)c(Cl)cc21 (stereo not shown)" data_value=5.16
molecule="C#CCn1c(C(=O)NC(c2cccc(C(F)(F)F)c2)C(F)(F)F)cc2cc(C(=O)NC3(C#N)CC3)c(Cl)cc21 (stereo not shown)" data_value=3.49
molecule="CCn1c(C(=O)NC(c2cccc(C(F)(F)F)c2)C(F)(F)F)cc2cc(C(=O)NC3(C(N)=S)CC3)c(Cl)cc21 (stereo not shown)" data_value=3.56
molecule="CCn1c(C(=O)NC(c2cccc(C(F)(F)F)c2)C(F)(F)F)c(Cl)c2cc(C(=O)NC3(C#N)CC3)c(Cl)cc21 (stereo not shown)" data_value=3.95
molecule="CCn1c(C(=O)NC(c2cccc(C(F)(F)F)c2)C(F)(F)F)c(C#N)c2cc(C(=O)NC3(C#N)CC3)c(Cl)cc21 (stereo not shown)" data_value=3.45
molecule="N#CC1(NC(=O)c2cc3cc(C(=O)NC(c4cccc(C(F)(F)F)c4)C(F)(F)F)n(C4CC4)c3cc2Cl)CC1 (stereo not shown)" data_value=3.59
molecule="CCn1c(C(=O)NC(c2cccc(C(F)(F)F)c2)C(F)(F)F)nc2cc(C(=O)NC3CC3)c(Cl)cc21 (stereo not shown)" data_value=3.71
molecule="O=C(NC1CC1)c1cc2nc(C(=O)NC(c3cccc(C(F)(F)F)c3)C(F)(F)F)n(C3CC3)c2cc1Cl (stereo not shown)" data_value=3.48
molecule="CCn1c(C(=O)NC(c2cccc(C(F)(F)F)c2)C(F)(F)F)cc2cc(CNC(C)=O)c(Cl)cc21 (stereo not shown)" data_value=3.77
molecule="CCn1c(C(=O)NC(c2cccc(C(F)(F)F)c2)C(F)(F)F)cc2cc(C(=O)NC3(C#N)CC3)c(Cl)cc21 (stereo not shown)" data_value=3.8

* * *

log p for assorted compounds
PROTOCOL_DESCRIPTION: logP (HPLC-MS)
Format: physicochemical
TEST_CONTEXT: HPLC, reversed-phase column (C18), acidic range pH 2.7, acetonitrile (0.1% formic acid)/water gradient, 43° C., calibration with unbranched alkan-2-ones
PROPERTY_MEASURED: log p

compound="CCn1c(C(=O)NC(c2cccc(Br)c2)C(F)(F)F)cc2cc(C(=O)NC3CC3)c(Cl)cc21 (centres unmarked)" data_value=3.71
compound="CCn1c(C(=O)NC(c2cccc(OC(F)F)c2)C(F)(F)F)cc2cc(C(=O)NC3CC3)c(Cl)cc21 (centres unmarked)" data_value=3.48
compound="Cn1c(C(=O)NC(c2cccc(Br)c2)C(F)(F)F)cc2cc(C(=O)NC3CC3)c(Cl)cc21 (centres unmarked)" data_value=3.42
compound="C#CCn1c(C(=O)NC(c2cccc(OC(F)F)c2)C(F)(F)F)cc2cc(C(=O)NC3CC3)c(Cl)cc21 (centres unmarked)" data_value=3.32
compound="Cn1c(C(=O)NC(c2cccc(Cl)c2)C(F)(F)F)cc2cc(C(=O)NC3CC3)c(Cl)cc21 (centres unmarked)" data_value=3.33
compound="CCn1c(C(=O)NC(c2cccc(C(F)(F)F)c2)C(F)(F)F)cc2cc(CNC(=O)C3CC3)c(Cl)cc21 (centres unmarked)" data_value=4.19
compound="CCn1c(C(=O)NC(c2cccc(C(F)(F)F)c2)C(F)(F)F)cc2cc(C(=O)NC3(C(=O)OC)CC3)c(Cl)cc21 (centres unmarked)" data_value=3.86
compound="CCn1c(C(=O)NC(c2cccc(C(F)(F)F)c2)C(F)(F)F)cc2cc(C(=O)NC3(C)CC3)c(Cl)cc21 (centres unmarked)" data_value=4.16
compound="C#CCC(C#N)NC(=O)c1cc2cc(C(=O)NC(c3cccc(C(F)(F)F)c3)C(F)(F)F)n(CC)c2cc1Cl (centres unmarked)" data_value=3.91
compound="C#CCn1c(C(=O)NC(c2cc(Cl)cc(Cl)c2)C(F)(F)F)cc2cc(C(=O)NC3CC3)c(Cl)cc21 (centres unmarked)" data_value=3.90
compound="C#CC1(NC(=O)c2cc3cc(C(=O)NC(c4cccc(C(F)(F)F)c4)C(F)(F)F)n(CC)c3cc2Cl)CC1 (centres unmarked)" data_value=3.86
compound="CCn1c(C(=O)NC(c2cccc(C(F)(F)F)c2)C(F)(F)F)cc2cc(C(=O)NC3(CC)CC3)c(Cl)cc21 (centres unmarked)" data_value=4.45
compound="Cn1c(C(=O)NC(c2cccc(C(F)(F)F)c2)C(F)(F)F)nc2cc(C(=O)NC3CC3)c(Cl)cc21 (centres unmarked)" data_value=3.4
compound="CCn1c(C(=O)NC(c2cccc(Cl)c2)C(F)(F)F)cc2cc(C(=O)NC3CC3)c(Cl)cc21 (centres unmarked)" data_value=3.65
